assay: Pharmacokinetics study: eye tissue distribution of melatonin/agomelatine eye drops by HPLC/MS/MS in healthy rats; conditions: Sprague-Dawley, rat, vitreous humor, topical, 40 µg, Concentration, vitreous, individual animals 1-5; 3 x 40 µg eye drops, 2 h after last instillation
assay-readout: concentration at 2 h

Ask: Please give the measured concentration at 2 h for this compound: COc1ccc2cccc(CCNC(C)=O)c2c1 [agomelatine]
Result: 71 ng/g

----------
assay: Pharmacokinetics study: eye tissue distribution of melatonin/agomelatine eye drops by HPLC/MS/MS in healthy rats; settings: Sprague-Dawley, rat, vitreous humor, topical, 40 µg, Concentration, vitreous, mean, mean of 5 animals; 3 x 40 µg eye drops, 2 h after last instillation
assay-readout: concentration at 2 h
Answer format: number, then unit.

Ask: Please give the measured concentration at 2 h for this compound: COc1ccc2cccc(CCNC(C)=O)c2c1
Result: 80 ng/g

----------
assay: Pharmacokinetics study: eye tissue distribution of melatonin/agomelatine eye drops by HPLC/MS/MS in healthy rats; details: Sprague-Dawley, rat, whole eye, topical, 40 µg, Concentration, whole eye, mean, mean of 5 animals; 3 x 40 µg eye drops, 2 h after last instillation
assay-readout: concentration at 2 h
Answer format: number, then unit.

Ask: Please give the measured concentration at 2 h for this compound: COc1ccc2cccc(CCNC(C)=O)c2c1
Result: 9940 ng/g

----------
test: Pharmacokinetics study: eye tissue distribution of melatonin/agomelatine eye drops by HPLC/MS/MS in healthy rats; conditions: Sprague-Dawley, rat, whole eye, topical, 40 µg, Concentration, whole eye, individual animals 1-5; 3 x 40 µg as 10 µL eye drops 2 h apart, sampled 2 h after last instillation
assay-readout: concentration at 2 h
Answer format: number, then unit.

Ask: Please give the measured concentration at 2 h for this compound: COc1ccc2cccc(CCNC(C)=O)c2c1
Result: 10900 ng/g

----------
assay: in vivo; conditions: rat, Concentration in the retina (molar)
assay-readout: concentration at 2 h (nM)
Numbers only; they are read as nM.

Ask: Please give the measured concentration at 2 h for this compound: COc1ccc2[nH]cc(CCNC(C)=O)c2c1
Result: 17

----------
experiment: Pharmacokinetics study: eye tissue distribution of melatonin/agomelatine eye drops by HPLC/MS/MS in healthy rats; conditions: Sprague-Dawley, rat, retina, topical, 40 µg, Concentration in the retina (molar), converted from ng/mg
assay-readout: concentration at 2 h

Ask: Please give the measured concentration at 2 h for this compound: COc1ccc2cccc(CCNC(C)=O)c2c1
Result: ~378 nM

Values compiled from paper PMC7730513.
